assay system: recombinant hMAO-B (Homo sapiens (Human), UniProt P27338)
Sequence (P27338 whole entry): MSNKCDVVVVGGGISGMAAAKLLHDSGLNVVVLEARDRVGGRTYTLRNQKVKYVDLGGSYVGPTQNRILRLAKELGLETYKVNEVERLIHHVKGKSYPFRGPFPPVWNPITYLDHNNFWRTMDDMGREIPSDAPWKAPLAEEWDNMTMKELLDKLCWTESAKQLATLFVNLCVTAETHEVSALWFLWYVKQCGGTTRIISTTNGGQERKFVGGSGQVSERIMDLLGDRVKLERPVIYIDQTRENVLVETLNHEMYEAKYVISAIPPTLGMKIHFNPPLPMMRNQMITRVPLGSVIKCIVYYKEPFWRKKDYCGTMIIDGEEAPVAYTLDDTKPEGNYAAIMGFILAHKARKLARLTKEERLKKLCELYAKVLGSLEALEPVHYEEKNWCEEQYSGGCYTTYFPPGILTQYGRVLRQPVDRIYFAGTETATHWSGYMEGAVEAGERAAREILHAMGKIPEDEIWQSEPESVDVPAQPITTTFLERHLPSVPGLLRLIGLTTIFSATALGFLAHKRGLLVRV
protocol text: MAO-B activity assay (MAO-Glo assay kit)
measurement conditions: 4 μM substrate, 30 mins pre-incubation
measurement kind: IC50

Solved cases below.
In [3]: df
Out[3]:
                           structure_string  measured_result
0  NC/C(=C\F)COc1ccc(S(=O)(=O)CC2CCN(C(=O)C3CCCC3)CC2)c(F)c1          > 30 µM
1  CC(C)(C)C(=O)NC12CCC(CS(=O)(=O)c3ccc(OC/C(=C/F)CN)cc3)(CC1)C2      10 to 30 µM
2  CC(C)C(=O)NC12CCC(CS(=O)(=O)c3ccc(OC/C(=C/F)CN)cc3)(CC1)CC2      10 to 30 µM

Problem: Look up and state reported IC50 for CC(C)(C)NC(=O)C12CCC(CS(=O)(=O)c3ccc(OC/C(=C\F)CN)cc3)(CC1)CC2
Solution: > 30 µM
